Serine/threonine-protein kinase B-raf (Homo sapiens) data, read-out pIC50
Scale: negative log10 of molar concentration, which is what pIC50 denotes.

Previously resolved entries follow.
| MOL | pIC50 |
| --- | --- |
| COc1cc2ncnc(Nc3cccc(NC(=O)Nc4ccc(Cl)c(C(F)(F)F)c4)c3)c2cc1OCCCN1CCOCC1 | 6.71 |
| COc1cc2ncnc(Nc3ccc(NC(=O)Nc4ccc(Cl)c(C(F)(F)F)c4)cc3)c2cc1OCCCN1CCOCC1 | 6.27 |

Proceed to the following item.
Incoming: Give pIC50 for "CCN(CCO)CCCOc1ccc2c(Nc3cccc(NC(=O)Nc4ccc(Cl)c(C(F)(F)F)c4)c3)ncnc2c1"
Outgoing: 6.95

---

Dear all, this message contains IC50 results, target or system UniProtKB P00533.
Sequence (P00533 whole entry): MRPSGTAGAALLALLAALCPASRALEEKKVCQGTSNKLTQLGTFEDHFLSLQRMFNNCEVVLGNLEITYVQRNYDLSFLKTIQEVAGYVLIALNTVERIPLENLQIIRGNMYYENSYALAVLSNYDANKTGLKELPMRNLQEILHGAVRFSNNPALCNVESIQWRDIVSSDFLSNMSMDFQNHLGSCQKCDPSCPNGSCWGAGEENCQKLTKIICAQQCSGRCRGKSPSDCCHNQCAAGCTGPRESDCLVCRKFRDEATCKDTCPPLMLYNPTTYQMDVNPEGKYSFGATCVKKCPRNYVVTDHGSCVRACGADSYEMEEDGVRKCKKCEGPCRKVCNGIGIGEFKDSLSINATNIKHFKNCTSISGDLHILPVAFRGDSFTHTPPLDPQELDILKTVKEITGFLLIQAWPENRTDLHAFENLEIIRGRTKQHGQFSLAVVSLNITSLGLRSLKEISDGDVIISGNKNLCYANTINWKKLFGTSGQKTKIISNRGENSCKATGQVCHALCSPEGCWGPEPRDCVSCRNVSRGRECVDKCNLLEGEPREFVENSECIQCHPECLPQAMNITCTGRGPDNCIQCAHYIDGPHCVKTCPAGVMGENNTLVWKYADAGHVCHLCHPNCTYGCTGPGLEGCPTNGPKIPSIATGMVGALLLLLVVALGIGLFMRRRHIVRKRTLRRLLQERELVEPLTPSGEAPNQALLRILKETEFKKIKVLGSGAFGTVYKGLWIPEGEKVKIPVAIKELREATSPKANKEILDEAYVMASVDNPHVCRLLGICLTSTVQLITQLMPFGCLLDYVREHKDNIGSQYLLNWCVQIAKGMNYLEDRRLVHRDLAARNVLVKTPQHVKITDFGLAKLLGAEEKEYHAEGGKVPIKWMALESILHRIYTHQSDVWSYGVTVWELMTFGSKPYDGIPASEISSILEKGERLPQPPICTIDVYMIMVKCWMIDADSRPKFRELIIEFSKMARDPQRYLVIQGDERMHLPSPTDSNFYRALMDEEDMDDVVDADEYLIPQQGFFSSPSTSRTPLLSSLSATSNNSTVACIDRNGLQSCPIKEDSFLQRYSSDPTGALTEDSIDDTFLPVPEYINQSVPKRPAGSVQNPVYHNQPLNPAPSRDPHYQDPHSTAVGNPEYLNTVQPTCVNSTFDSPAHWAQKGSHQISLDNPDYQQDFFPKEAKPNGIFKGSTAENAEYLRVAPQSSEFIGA
Provide only the numeric value, understood in µM.

# annotated cases, reported IC50 shown
| MOL | TARGET_OR_TEST_SYSTEM | UNIT_ABBREVIATION | REPORTED_MEASUREMENT |
| --- | --- | --- | --- |
| O=C(Nc1cccc(Nc2ncnc3cc(OCCCN4CCN(CCO)CC4)ccc23)c1)Nc1ccc(Cl)c(C(F)(F)F)c1 | UniProtKB P00533 | µM | 0.099 |
| CCN(CCO)CCCOc1ccc2c(Nc3cccc(NC(=O)Nc4ccc(Cl)c(C(F)(F)F)c4)c3)ncnc2c1 | UniProtKB P00533 | µM | 0.188 |
| COc1cc2ncnc(Nc3cccc(NC(=O)Nc4ccc(Cl)c(C(F)(F)F)c4)c3)c2cc1OCCCN1CCOCC1 | UniProtKB P00533 | µM | 0.082 |

Let's switch to this compound now.
Incoming: # assay system UniProtKB P00533: give IC50 of "O=C(Nc1cccc(Nc2ncnc3cc(OCCCN4CCOCC4)ccc23)c1)Nc1ccc(F)c(Cl)c1"
Outgoing: 3.31

---

- TARGET_OR_TEST_SYSTEM: Vascular endothelial growth factor receptor 2 (Homo sapiens)
- Sequence (P35968 whole entry): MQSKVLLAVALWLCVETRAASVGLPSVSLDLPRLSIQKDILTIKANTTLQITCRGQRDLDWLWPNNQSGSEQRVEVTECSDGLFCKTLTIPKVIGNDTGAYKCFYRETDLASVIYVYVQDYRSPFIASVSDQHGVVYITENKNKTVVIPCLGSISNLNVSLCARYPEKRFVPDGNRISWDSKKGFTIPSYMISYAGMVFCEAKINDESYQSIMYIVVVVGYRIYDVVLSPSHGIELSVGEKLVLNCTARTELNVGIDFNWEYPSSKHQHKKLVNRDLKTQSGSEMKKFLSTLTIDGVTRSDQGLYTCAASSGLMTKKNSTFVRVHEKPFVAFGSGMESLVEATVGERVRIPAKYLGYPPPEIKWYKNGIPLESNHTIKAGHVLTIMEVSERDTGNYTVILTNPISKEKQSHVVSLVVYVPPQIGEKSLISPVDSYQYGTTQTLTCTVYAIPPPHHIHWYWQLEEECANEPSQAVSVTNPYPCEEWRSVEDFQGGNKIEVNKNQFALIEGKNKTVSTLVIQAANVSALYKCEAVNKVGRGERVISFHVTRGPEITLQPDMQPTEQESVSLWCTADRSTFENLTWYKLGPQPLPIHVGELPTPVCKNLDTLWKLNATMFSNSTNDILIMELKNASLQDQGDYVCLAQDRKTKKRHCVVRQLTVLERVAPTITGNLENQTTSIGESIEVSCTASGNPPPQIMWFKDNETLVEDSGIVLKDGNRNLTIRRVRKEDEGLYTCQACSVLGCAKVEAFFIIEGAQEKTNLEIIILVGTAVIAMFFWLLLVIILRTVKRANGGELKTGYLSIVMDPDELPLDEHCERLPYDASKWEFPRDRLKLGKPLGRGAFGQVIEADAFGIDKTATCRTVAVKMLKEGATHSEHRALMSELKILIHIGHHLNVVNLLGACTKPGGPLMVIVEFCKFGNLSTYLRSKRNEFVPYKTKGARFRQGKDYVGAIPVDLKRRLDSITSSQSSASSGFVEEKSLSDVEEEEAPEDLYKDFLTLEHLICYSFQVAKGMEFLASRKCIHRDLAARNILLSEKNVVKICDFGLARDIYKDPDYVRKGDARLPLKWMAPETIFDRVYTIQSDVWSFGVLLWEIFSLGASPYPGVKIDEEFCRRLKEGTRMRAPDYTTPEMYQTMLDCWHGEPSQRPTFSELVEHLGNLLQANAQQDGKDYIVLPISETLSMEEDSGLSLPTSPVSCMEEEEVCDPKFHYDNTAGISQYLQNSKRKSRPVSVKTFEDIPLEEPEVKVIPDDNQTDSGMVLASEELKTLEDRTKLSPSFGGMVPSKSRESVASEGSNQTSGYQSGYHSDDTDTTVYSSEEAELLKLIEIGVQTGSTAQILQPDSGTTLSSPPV
MEASURE: IC50

Incoming: Return reported IC50 for target or system Vascular endothelial growth factor receptor 2 (Homo sapiens), item "COc1cc2ncnc(Nc3cccc(NC(=O)Nc4ccc(F)c(Cl)c4)c3)c2cc1OCCCN1CCOCC1" .
Outgoing: > 10 µM

---

Known IC50 of a selection of compounds
- TARGET_OR_TEST_SYSTEM: Serine/threonine-protein kinase B-raf (Homo sapiens, UniProt P15056, V600E)
- Sequence (P15056 2-766 V600E limits assumed): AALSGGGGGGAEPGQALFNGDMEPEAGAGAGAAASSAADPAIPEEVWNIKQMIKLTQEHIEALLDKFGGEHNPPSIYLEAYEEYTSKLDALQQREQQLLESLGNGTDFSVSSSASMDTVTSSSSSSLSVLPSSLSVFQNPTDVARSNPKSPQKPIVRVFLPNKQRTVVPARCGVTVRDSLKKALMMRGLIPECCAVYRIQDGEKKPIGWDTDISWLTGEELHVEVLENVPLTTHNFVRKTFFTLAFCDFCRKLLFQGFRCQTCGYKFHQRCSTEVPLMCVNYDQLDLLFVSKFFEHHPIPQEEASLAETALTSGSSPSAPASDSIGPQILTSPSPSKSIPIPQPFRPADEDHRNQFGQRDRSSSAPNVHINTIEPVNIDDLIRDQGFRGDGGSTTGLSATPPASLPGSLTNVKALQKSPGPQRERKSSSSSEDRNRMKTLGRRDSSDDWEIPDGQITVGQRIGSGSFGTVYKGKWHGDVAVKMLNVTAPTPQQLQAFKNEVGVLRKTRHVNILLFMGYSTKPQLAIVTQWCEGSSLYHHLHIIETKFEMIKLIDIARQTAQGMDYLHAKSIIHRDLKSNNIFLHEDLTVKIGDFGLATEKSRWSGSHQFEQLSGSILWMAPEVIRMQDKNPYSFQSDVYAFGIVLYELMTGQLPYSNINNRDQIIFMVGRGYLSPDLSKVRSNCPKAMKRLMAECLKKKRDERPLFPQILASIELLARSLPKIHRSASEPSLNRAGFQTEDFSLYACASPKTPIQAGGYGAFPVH
- PROTOCOL_DETAILS: Inhibition of BRAF V600E mutant (unknown origin) after 1 hr by LanthaScreen assay
// units = µM; emit number, no label

Worked cases, IC50 given:
| MOL | MEASURE | UNIT_ABBREVIATION | REPORTED_MEASUREMENT |
| --- | --- | --- | --- |
| O=C(Nc1cccc(Nc2ncnc3cc(OCCCN4CCN(CCO)CC4)ccc23)c1)Nc1ccc(Cl)c(C(F)(F)F)c1 | IC50 | µM | 0.058 |
| COc1cc2ncnc(Nc3ccc(NC(=O)Nc4ccc(Cl)c(C(F)(F)F)c4)cc3)c2cc1OCCCN1CCOCC1 | IC50 | µM | 0.371 |

Incoming: Provide measured IC50 value, entry: "COc1cc2ncnc(Nc3cccc(NC(=O)Nc4ccc(F)c(Cl)c4)c3)c2cc1OCCCN1CCOCC1"
Outgoing: 0.055

Incoming: Output measured IC50 for this item: "CCN(CCO)CCCOc1ccc2c(Nc3cccc(NC(=O)Nc4ccc(F)c(Cl)c4)c3)ncnc2c1"
Outgoing: 0.013

Incoming: Specify IC50 for "CCN(CCO)CCCOc1ccc2c(Nc3cccc(NC(=O)Nc4ccc(Cl)c(C(F)(F)F)c4)c3)ncnc2c1" and stop.
Outgoing: 0.053

Incoming: Item "O=C(Nc1cccc(Nc2ncnc3cc(OCCCN4CCOCC4)ccc23)c1)Nc1ccc(F)c(Cl)c1" : provide IC50
Outgoing: 0.042

Incoming: Answer with the recorded IC50 of "COc1cc2ncnc(Nc3cccc(NC(=O)Nc4ccc(Cl)c(C(F)(F)F)c4)c3)c2cc1OCCCN1CCOCC1" only.
Outgoing: 0.075

Incoming: Retrieve IC50 measured for "COc1cc2ncnc(Nc3cccc(NC(=O)Nc4cccc(C)c4)c3)c2cc1OCCCN1CCOCC1" and print it.
Outgoing: 0.054

Just for reference, ChEMBL document CHEMBL3132845 is where these values come from.
